# collection of pKi values tested on Human immunodeficiency virus type 1 protease (Human immunodeficiency virus 1)
pKi: −log10 of the molar value.

For reference, reported pKi for O=C(N[C@@H](Cc1ccccc1)[C@H](O)CN(OC1CCCC1)S(=O)(=O)c1ccc(O)cc1)O[C@H]1CO[C@H]2OCC[C@H]21 stands at > 11.30

Please fill in: pKi reported for O=C(N[C@@H](Cc1ccccc1)[C@H](O)CN(OC1CCCCC1)S(=O)(=O)c1ccc(O)cc1)O[C@H]1CO[C@H]2OCC[C@H]21 = > 11.30

The recorded pKi for Nc1ccc(S(=O)(=O)N(C[C@@H](O)[C@H](Cc2ccccc2)NC(=O)O[C@H]2CO[C@H]3OCC[C@H]32)OC2CCCCC2)cc1 is 10.74

// sample O=C(N[C@@H](Cc1ccccc1)[C@H](O)CN(OC1CCCCC1)S(=O)(=O)c1ccc2c(c1)OCCO2)O[C@H]1CO[C@H]2OCC[C@H]21 , its pKi was > 11.30

// O=C(N[C@@H](Cc1ccccc1)[C@H](O)CN(OC1CCCCC1)S(=O)(=O)c1ccc2c(c1)OCO2)O[C@H]1CO[C@H]2OCC[C@H]21 : pKi value = > 11.30

# compound Nc1ccc(S(=O)(=O)N(C[C@@H](O)[C@H](Cc2ccccc2)NC(=O)O[C@H]2CO[C@H]3OCC[C@H]32)OC2CCCC2)cc1 ; its pKi = > 11.30

// recorded pKi for COc1ccc(S(=O)(=O)N(C[C@@H](O)[C@H](Cc2ccccc2)NC(=O)OC(C)(C)C)OC2CCCC2)cc1 : 8.80

get_value(item= COc1ccc(S(=O)(=O)N(C[C@@H](O)[C@H](Cc2ccccc2)NC(=O)OC(C)(C)C)OCC(C)C)cc1 , readout=pKi) returns 8.40
